System: differentiated conditionally immortalized PTECs (ciPTECs, OAT-1)
Protocol: ciPTEC toxicity assay (PrestoBlue)
Type: cell-based, human
Positions of bridges follow the written chain, without caps; N, C: chain ends. Non-standard residues stand in square brackets, D forms with d. Residues, ends and D or L forms follow the SMILES beside them. *: point of attachment. S(2-cyclohexylethyl) = C1CCC(CCS*)CC1; X3 = c1ccc(Oc2ccc(CS*)cc2)cc1; Dab = NCC[C@H](N)C(=O)O

| Molecule | TC50, Day 2 / µM |
| --- | --- |
| CC(C)C[C@@H]1NC(=O)[C@@H](Cc2ccccc2)NC(=O)[C@H](CCN)NC(=O)[C@@H](NC(=O)[C@H](CCN)NC(=O)[C@@H](NC(=O)[C@H](CSSCCC2CCCCC2)NC(=O)CN)[C@@H](C)O)CCNC(=O)[C@H]([C@@H](C)O)NC(=O)[C@H](CCN)NC(=O)[C@H](CCN)NC1=O [Compound 23a] (H-GC(S(2-cyclohexylethyl))T[Dab][Dab][Dab][dF]L[Dab][Dab]T; lactam 5-C) | 391 |
| CC(C)C[C@@H]1NC(=O)[C@@H](Cc2ccccc2)NC(=O)[C@H](CCN)NC(=O)[C@@H](NC(=O)[C@H](CCN)NC(=O)[C@@H](NC(=O)[C@@H](CSSCCC2CCCCC2)NC(=O)CN)[C@@H](C)O)CCNC(=O)[C@H]([C@@H](C)O)NC(=O)[C@H](CCN)NC(=O)[C@H](CCN)NC1=O [Compound 23b] (H-G[dC](S(2-cyclohexylethyl))T[Dab][Dab][Dab][dF]L[Dab][Dab]T; lactam 5-C) | 58 |
| CC(C)C[C@@H]1NC(=O)[C@@H](Cc2ccccc2)NC(=O)[C@H](CCN)NC(=O)[C@@H](NC(=O)[C@H](CCN)NC(=O)[C@@H](NC(=O)[C@H](N)CSSCCC2CCCCC2)[C@@H](C)O)CCNC(=O)[C@H]([C@@H](C)O)NC(=O)[C@H](CCN)NC(=O)[C@H](CCN)NC1=O [Compound 19b] (H-[dC](S(2-cyclohexylethyl))T[Dab][Dab][Dab][dF]L[Dab][Dab]T; lactam 4-C) | 51 |
| CC(C)C[C@@H]1NC(=O)[C@@H](Cc2ccccc2)NC(=O)[C@H](CCN)NC(=O)[C@@H](NC(=O)[C@H](CCN)NC(=O)[C@@H](NC(=O)[C@H](N)CSSCc2ccc(Oc3ccccc3)cc2)[C@@H](C)O)CCNC(=O)[C@H]([C@@H](C)O)NC(=O)[C@H](CCN)NC(=O)[C@H](CCN)NC1=O [Compound 37] (H-[dC](X3)T[Dab][Dab][Dab][dF]L[Dab][Dab]T; lactam 4-C) | 72 |

###

System: A. baumannii (ATCC 19606)
Type: cell-based
Study conditions: ATCC 19606
Positions of bridges follow the written chain, without caps; N, C: chain ends. Non-standard residues stand in square brackets, D forms with d. Residues, ends and D or L forms follow the SMILES beside them. *: point of attachment. X6 = c1ccc(-c2ccc(S*)cc2)cc1; Dab = NCC[C@H](N)C(=O)O; X1 = CC(C)CCCCS*; X4 = CCCCCCS*
Quick reference for MIC A. baumannii (ATCC 19606) among some molecules

| Molecule | MIC A. baumannii (ATCC 19606) / µg/mL |
| --- | --- |
| CC(C)CCCCSSC[C@@H](NC(=O)CN)C(=O)N[C@H](C(=O)N[C@@H](CCN)C(=O)N[C@H]1CCNC(=O)[C@H]([C@@H](C)O)NC(=O)[C@H](CCN)NC(=O)[C@H](CCN)NC(=O)[C@H](CC(C)C)NC(=O)[C@@H](Cc2ccccc2)NC(=O)[C@H](CCN)NC1=O)[C@@H](C)O [Compound 24b] (H-G[dC](X1)T[Dab][Dab][Dab][dF]L[Dab][Dab]T; lactam 5-C) | 1 |
| CC(C)C[C@@H]1NC(=O)[C@@H](Cc2ccccc2)NC(=O)[C@H](CCN)NC(=O)[C@@H](NC(=O)[C@H](CCN)NC(=O)[C@@H](NC(=O)[C@H](N)CSSc2ccc(-c3ccccc3)cc2)[C@@H](C)O)CCNC(=O)[C@H]([C@@H](C)O)NC(=O)[C@H](CCN)NC(=O)[C@H](CCN)NC1=O [Compound 29b] (H-[dC](X6)T[Dab][Dab][Dab][dF]L[Dab][Dab]T; lactam 4-C) | 8 |
| CCCCCCSSC[C@@H](NC(=O)CN)C(=O)N[C@H](C(=O)N[C@@H](CCN)C(=O)N[C@H]1CCNC(=O)[C@H]([C@@H](C)O)NC(=O)[C@H](CCN)NC(=O)[C@H](CCN)NC(=O)[C@H](CC(C)C)NC(=O)[C@@H](Cc2ccccc2)NC(=O)[C@H](CCN)NC1=O)[C@@H](C)O [Compound 21b] (H-G[dC](X4)T[Dab][Dab][Dab][dF]L[Dab][Dab]T; lactam 5-C) | 1 |

###

Quick reference for MIC A. baumannii (ATCC 19606) among some compounds
Test system: A. baumannii (ATCC 19606)
Type: cell-based
Study conditions: ATCC 19606
Experimental: Minimum inhibitory concentrations (MICs) on relevant Gram-negative bacteria were determined by broth microdilution, in accordance with CLSI guidelines. Indicated bacteria were taken from glycerol stocks and incubated overnight on blood agar at 37 °C. Well-isolated colonies were taken, suspended in TSB (5 mL), and grown to an OD600 of 0.5. […] MIC was read out as the lowest concentration that inhibited visual bacterial growth. […]
Positions of bridges follow the written chain, without caps; N, C: chain ends. Non-standard residues stand in square brackets, D forms with d. Residues, ends and D or L forms follow the SMILES beside them. *: point of attachment. Phenylthio(4-OPh) = c1ccc(Oc2ccc(S*)cc2)cc1; Dab = NCC[C@H](N)C(=O)O; X4 = CCCCCCS*
Experimental endpoint: MIC A. baumannii (ATCC 19606)

| Compound | Experimental endpoint | Meas value |
| --- | --- | --- |
| CC(C)C[C@@H]1NC(=O)[C@@H](Cc2ccccc2)NC(=O)[C@H](CCN)NC(=O)[C@@H](NC(=O)[C@H](CCN)NC(=O)[C@@H](NC(=O)[C@@H](N)CSSc2ccc(Oc3ccccc3)cc2)[C@@H](C)O)CCNC(=O)[C@H]([C@@H](C)O)NC(=O)[C@H](CCN)NC(=O)[C@H](CCN)NC1=O [Compound 30a] (H-C(Phenylthio(4-OPh))T[Dab][Dab][Dab][dF]L[Dab][Dab]T; lactam 4-C) | MIC A. baumannii (ATCC 19606) | >32 µg/mL |
| CCCCCCSSC[C@@H](N)C(=O)N[C@H](C(=O)N[C@@H](CCN)C(=O)N[C@H]1CCNC(=O)[C@H]([C@@H](C)O)NC(=O)[C@H](CCN)NC(=O)[C@H](CCN)NC(=O)[C@H](CC(C)C)NC(=O)[C@@H](Cc2ccccc2)NC(=O)[C@H](CCN)NC1=O)[C@@H](C)O [Compound 17b] (H-[dC](X4)T[Dab][Dab][Dab][dF]L[Dab][Dab]T; lactam 4-C) | MIC A. baumannii (ATCC 19606) | 1 µg/mL |

###

Tested on: differentiated conditionally immortalized PTECs (ciPTECs, OAT-1)
Protocol: ciPTEC toxicity assay (PrestoBlue)
Format: cell-based, human
Positions of bridges follow the written chain, without caps; N, C: chain ends. Non-standard residues stand in square brackets, D forms with d. Residues, ends and D or L forms follow the SMILES beside them. *: point of attachment. S(3-Methylbutyl) = CC(C)CCS*; Dab = NCC[C@H](N)C(=O)O; X4 = CCCCCCS*
Field 'label' (enum: true / false). Set to true when TC50, Day 1 is strictly under 300 µM; else false.

| Compound | Target or test system | Answer label |
| --- | --- | --- |
| CC(C)CCSSC[C@H](N)C(=O)N[C@H](C(=O)N[C@@H](CCN)C(=O)N[C@H]1CCNC(=O)[C@H]([C@@H](C)O)NC(=O)[C@H](CCN)NC(=O)[C@H](CCN)NC(=O)[C@H](CC(C)C)NC(=O)[C@@H](Cc2ccccc2)NC(=O)[C@H](CCN)NC1=O)[C@@H](C)O [Compound 18a] (H-C(S(3-Methylbutyl))T[Dab][Dab][Dab][dF]L[Dab][Dab]T; lactam 4-C) | differentiated conditionally immortalized PTECs (ciPTECs, OAT-1) | false |
| CC(C)CCSSC[C@@H](N)C(=O)N[C@H](C(=O)N[C@@H](CCN)C(=O)N[C@H]1CCNC(=O)[C@H]([C@@H](C)O)NC(=O)[C@H](CCN)NC(=O)[C@H](CCN)NC(=O)[C@H](CC(C)C)NC(=O)[C@@H](Cc2ccccc2)NC(=O)[C@H](CCN)NC1=O)[C@@H](C)O [Compound 18b] (H-[dC](S(3-Methylbutyl))T[Dab][Dab][Dab][dF]L[Dab][Dab]T; lactam 4-C) | differentiated conditionally immortalized PTECs (ciPTECs, OAT-1) | false |
| CC(C)CCSSC[C@@H](NC(=O)CN)C(=O)N[C@H](C(=O)N[C@@H](CCN)C(=O)N[C@H]1CCNC(=O)[C@H]([C@@H](C)O)NC(=O)[C@H](CCN)NC(=O)[C@H](CCN)NC(=O)[C@H](CC(C)C)NC(=O)[C@@H](Cc2ccccc2)NC(=O)[C@H](CCN)NC1=O)[C@@H](C)O [Compound 22b] (H-G[dC](S(3-Methylbutyl))T[Dab][Dab][Dab][dF]L[Dab][Dab]T; lactam 5-C) | differentiated conditionally immortalized PTECs (ciPTECs, OAT-1) | true |
| CCCCCCSSC[C@@H](NC(=O)CN)C(=O)N[C@H](C(=O)N[C@@H](CCN)C(=O)N[C@H]1CCNC(=O)[C@H]([C@@H](C)O)NC(=O)[C@H](CCN)NC(=O)[C@H](CCN)NC(=O)[C@H](CC(C)C)NC(=O)[C@@H](Cc2ccccc2)NC(=O)[C@H](CCN)NC1=O)[C@@H](C)O [Compound 21b] (H-G[dC](X4)T[Dab][Dab][Dab][dF]L[Dab][Dab]T; lactam 5-C) | differentiated conditionally immortalized PTECs (ciPTECs, OAT-1) | false |
| CCCCCCSSC[C@H](N)C(=O)N[C@H](C(=O)N[C@@H](CCN)C(=O)N[C@H]1CCNC(=O)[C@H]([C@@H](C)O)NC(=O)[C@H](CCN)NC(=O)[C@H](CCN)NC(=O)[C@H](CC(C)C)NC(=O)[C@@H](Cc2ccccc2)NC(=O)[C@H](CCN)NC1=O)[C@@H](C)O [Compound 17a] (H-C(X4)T[Dab][Dab][Dab][dF]L[Dab][Dab]T; lactam 4-C) | differentiated conditionally immortalized PTECs (ciPTECs, OAT-1) | false |
| CCCCCCSSC[C@@H](N)C(=O)N[C@H](C(=O)N[C@@H](CCN)C(=O)N[C@H]1CCNC(=O)[C@H]([C@@H](C)O)NC(=O)[C@H](CCN)NC(=O)[C@H](CCN)NC(=O)[C@H](CC(C)C)NC(=O)[C@@H](Cc2ccccc2)NC(=O)[C@H](CCN)NC1=O)[C@@H](C)O [Compound 17b] (H-[dC](X4)T[Dab][Dab][Dab][dF]L[Dab][Dab]T; lactam 4-C) | differentiated conditionally immortalized PTECs (ciPTECs, OAT-1) | true |
